These data points were gathered from ChEMBL document CHEMBL1926655.

assay details: Displacement of [3H]ditolylguanidine from sigma 2 receptor in rat liver membrane after 1.5 hrs by scintillation counting in presence of sigma 1 blocker (+)-pentazocine
Type: cell membranes
Exam item: assign criterion met to entries whose Ki is below 5 µM and criterion not met to entries at or above 5 µM. Note that a value of exactly 5 µM receives criterion not met.

Task: Does COc1cc2c(cc1OC)CN(CCCCNC(=O)c1cccc(OC)c1O)CC2 have Ki strictly under 5 µM?
Output: criterion met

Task: For O=C1c2ccccc2C(=O)N1CCCCN1CCc2ccc([N+](=O)[O-])cc2C1 then?
Output: criterion met

Task: For COc1c(I)ccc(C(=O)NCCCCN2CCc3ccc([N+](=O)[O-])cc3C2)c1O then?
Output: criterion met

Task: For COc1ccc(C(=O)NCCCCN2CCc3ccc([N+](=O)[O-])cc3C2)c(OC)c1OC then?
Output: criterion met

Task: For COc1cccc(C(=O)NCCCCN2CCc3ccc([N+](=O)[O-])cc3C2)c1OC then?
Output: criterion not met

* * *

Organism: Rattus norvegicus
assay details: Selectivity ratio of Ki for rat sigma 1 receptor to Ki for rat sigma 2 receptor
assay readout: Ratio Ki
API note: the answer field is a bare number with no unit suffix.

Recorded Ratio Ki, per entry:
{"substance smiles": "COc1cc2c(cc1OC)CN(CCCCNC(=O)c1ccc([N+](=O)[O-])cc1)CC2", "Ratio Ki": 0.096}
{"substance smiles": "COc1cccc(C(=O)NCCCCN2CCc3ccc([N+](=O)[O-])cc3C2)c1OC", "Ratio Ki": 0.61}
{"substance smiles": "COc1ccc(C(=O)NCCCCN2CCc3ccc([N+](=O)[O-])cc3C2)c(OC)c1OC", "Ratio Ki": 385}

Task: State the recorded Ratio Ki for this entry: O=C1c2ccccc2C(=O)N1CCCCN1CCc2ccc([N+](=O)[O-])cc2C1
Output: 4.12

Task: For COc1cccc(C(=O)NCCCCN2CCc3ccc([N+](=O)[O-])cc3C2)c1O then?
Output: 2.8

Task: For COc1cc2c(cc1OC)CN(CCCCNC(=O)c1cccc(OC)c1O)CC2 then?
Output: 48.4

Task: For COc1c(I)ccc(C(=O)NCCCCN2CCc3ccc([N+](=O)[O-])cc3C2)c1O then?
Output: 86.2

* * *

assay details: Displacement of [3H]ditolylguanidine from sigma 2 receptor in rat liver membrane after 1.5 hrs by scintillation counting in presence of sigma 1 blocker (+)-pentazocine
Format: cell membranes
We begin with a simple list: items and their reported Ki.
Field: numeric (µM). Do not append units.

{"substance smiles": "COc1cccc(C(=O)NCCCCN2CCc3ccc([N+](=O)[O-])cc3C2)c1O", "uom": "µM", "Ki": 4}
{"substance smiles": "COc1cc2c(cc1OC)CN(CCCCNC(=O)c1ccccc1)CC2", "uom": "µM", "Ki": 5.29}

--- query ---
Task: State the recorded Ki for this entry: COc1cc2c(cc1OC)CN(CCCCNC(=O)c1ccc([N+](=O)[O-])cc1)CC2
Output: 152
